# Tested on: SF-539
# assayComment: NCI tumour cell line growth inhibition, 48 h
Active and inactive are the calls of the source. Rule as the data show it: active = GI50 up to about 1.1 µM and inactive = higher.
Classes used: active, inactive

[[record]]
compound = "COc1cc(OC(=O)c2c(O)cc(O)c(O)c2C)cc(C)c1C(=O)Oc1cc(C)c(C(=O)O)c(O)c1"
assignedlabel = "inactive"

[[record]]
compound = "O/N=C1\\CCc2nonc2\\C1=N/Nc1ccccc1"
assignedlabel = "inactive"

[[record]]
compound = "CSc1ccc(/C=C2/C[N+](C)(C)C/C(=C/c3ccc(SC)cc3)C2=O)cc1"
assignedlabel = "inactive"

[[record]]
compound = "Cc1ccc(/C=C2\\CCCC(CN(C)C)C2=O)cc1 (configuration not stated)"
assignedlabel = "inactive"

[[record]]
compound = "CC1Nc2ccccc2NC1C=C(C#N)C#N (configuration not stated)"
assignedlabel = "inactive"

[[record]]
compound = "C=C(Br)C(Cl)(CBr)CCC(Br)C(C)(C)Cl (configuration not stated)"
assignedlabel = "inactive"

[[record]]
compound = "O=C1CC(c2ccc([N+](=O)[O-])cc2)C2(C(=O)NC(=S)NC2=O)C(c2ccc([N+](=O)[O-])cc2)C1 (configuration not stated)"
assignedlabel = "inactive"

[[record]]
compound = "COc1ccc(OC)c(NC(=O)C(=O)NNC(=O)c2sc(NNC(C)=O)nc2C)c1"
assignedlabel = "inactive"

[[record]]
compound = "CC(C)Oc1cccc(N2C(CCc3c[nH]c4ccc(Br)cc34)=NS(=O)(=O)c3cnccc32)c1"
assignedlabel = "inactive"

[[record]]
compound = "Cc1cc(O)c2c(c1)C[C@@H](O)C1=C2C(=O)c2c(O)ccc(OC3CC(O)C(OC4CC(OC5CCC(OC6CC(O)C(OC7CC(OC8CCC(O)C(C)O8)C(O)C(C)O7)C(C)O6)C(C)O5)C(O)C(C)O4)C(C)O3)c2C1=O (some centres not stated)"
assignedlabel = "active"

[[record]]
compound = "CSc1nc(Cl)c2c(n1)Sc1nc3cc4c(cc3n1C2O)OCO4 (configuration not stated)"
assignedlabel = "active"

[[record]]
compound = "COc1cc2c(c(OC)c1OC)-c1cccc(=O)cc1C(NC(C)=O)CC2 (configuration not stated)"
assignedlabel = "active"


----------
Each entry below carries its recorded GI50.
# System: T47D
# assayComment: NCI tumour cell line growth inhibition, 48 h
The source made the active and inactive calls. Rule as the data show it: active = GI50 up to about 1.1 µM and inactive = higher.
measure: GI50

[[record]]
molecule = "O=C1CSC(c2ccccc2[N+](=O)[O-])N1c1ccc(-n2c(-c3ccccc3)nc3ccccc3c2=O)cc1 (stereo not given)"
valueobserved = "23.7 µM (inactive)"

[[record]]
molecule = "Cc1cccc2c1[C@]13OC(C)[C@]4(C)CC5OC(=O)[C@@]1(C)[C@@H]5[C@]34C(=O)O2 (stereo not given in full)"
valueobserved = "> 100 µM (inactive)"

[[record]]
molecule = "CNC(=O)c1nn[nH]c1O"
valueobserved = "> 100 µM (inactive)"

[[record]]
molecule = "O=C1c2ccc3ccccc3c2CCC1N1CCCCC1 (stereo not given)"
valueobserved = "21.2 µM (inactive)"

[[record]]
molecule = "Cc1cc2[nH]c3c(C#N)c(-c4ccccc4)c(CN4CCOCC4)c(=O)n3c2cc1C"
valueobserved = "> 100 µM (inactive)"


----------
# Test system: CAKI-1
# assayComment: NCI tumour cell line growth inhibition, 48 h
Active and inactive are the calls of the source. No stated cut-off is given here; in the data, active = GI50 up to about 1.1 µM and inactive = higher.
Classes used: active, inactive

[[record]]
molecule = "FC(F)(F)c1cccnc1Sc1nc2ccccc2s1"
assignedlabel = "inactive"

[[record]]
molecule = "CC1C2CC(CC23OCC(CCl)O3)C1(C)C (stereo not given)"
assignedlabel = "inactive"

[[record]]
molecule = "COC(=O)n1c(C)c(C=O)c2ccc(OC)cc21"
assignedlabel = "inactive"

[[record]]
molecule = "Cc1cccc2c(NCCN(C)C)c3cccc(C(=O)NCCN(C)C)c3nc12"
assignedlabel = "active"

[[record]]
molecule = "CCN(CC)CCC(=O)OC1C(C)=CC(C)C(=O)CC(C(C)CC2CCC(O)C(OC)C2)OC(=O)C2CCCCN2C(=O)C(=O)[C@@]2(O)OC(CCC2C)CC(OC)\\C(C)=C/C=C/C=C/C(C)CC(C)C(=O)C1OC (stereo not given in full)"
assignedlabel = "active"


----------
# Test system: SF-539
# assayComment: NCI tumour cell line growth inhibition, 48 h
The source made the active and inactive calls. Cut-off read from the data, not from the text of the source: active = GI50 up to about 1.1 µM and inactive = higher.
Classes used: active, inactive

[[record]]
compound = "CN(/N=C(\\C(=O)O)c1ccccc1)C1=NCCN1"
assignedlabel = "inactive"

[[record]]
compound = "O=C(Cc1ccccc1)NN1C(=O)/C(=C\\c2ccc([N+](=O)[O-])cc2)S/C1=N\\c1ccccc1"
assignedlabel = "inactive"

[[record]]
compound = "N#CC1=CNc2sccc2S1(=O)=O"
assignedlabel = "inactive"

[[record]]
compound = "O=C1Nc2c(Cl)cc(Cl)cc2/C1=N/N=C/c1ccco1"
assignedlabel = "inactive"

[[record]]
compound = "COc1cccc2c1C(=O)c1c(O)c3c(c(O)c1C2=O)C[C@@](O)(C(C)=O)C[C@@H]3OC1CC(O)C(O)C(C)O1 (stereo not given in full)"
assignedlabel = "active"

[[record]]
compound = "CC1(C)[N+]([O-])=[N+]([O-])C1(Br)c1ccccc1 (stereo not given)"
assignedlabel = "inactive"

[[record]]
compound = "Cc1cc(C)nc(NS(=O)(=O)c2ccc(NC(=O)c3cc([N+](=O)[O-])cc([N+](=O)[O-])c3)cc2)n1"
assignedlabel = "inactive"

[[record]]
compound = "NC(=O)c1ncn(C2OC(CO)C(O)C2O)c1O (stereo not given)"
assignedlabel = "inactive"

[[record]]
compound = "Cn1c(=O)c2c([nH]/c(=N/N=C/c3ccccc3C(=O)O)n2C)n(C)c1=O"
assignedlabel = "inactive"

[[record]]
compound = "COC(=O)n1c(C)c(C=O)c2ccc(OC)cc21"
assignedlabel = "inactive"

[[record]]
compound = "CCOC(=O)Cc1ccc(Nc2nc3cc(F)c(F)cc3nc2C(=O)OCC)cc1"
assignedlabel = "inactive"

[[record]]
compound = "O=C(/C=C/c1ccccc1F)c1ccc(Cl)c(Cl)c1"
assignedlabel = "inactive"

[[record]]
compound = "CC(=O)O[C@H]1CC[C@@]2(C)C(=CC[C@H]3[C@@H]4C[C@H](N5CCOCC5)[C@H](OC(C)=O)[C@@]4(C)CC[C@@H]32)C1"
assignedlabel = "inactive"

[[record]]
compound = "O=C(O)C1=C(C(=O)Nc2ccccc2)C2C=CC1C2 (stereo not given)"
assignedlabel = "inactive"

[[record]]
compound = "Cc1c2cc[n+](C)cc2c(C)c2c1[nH]c1ccc(OC(C)C)cc12"
assignedlabel = "inactive"

[[record]]
compound = "CSC[C@H](NC(=O)COc1cccc2cnccc12)C(=O)NC(Cc1ccccc1)C(O)C(=O)N1CSC[C@H]1C(=O)NC(C)(C)C (stereo not given in full)"
assignedlabel = "inactive"

[[record]]
compound = "COC(=O)/C(=N\\N)C(C(=O)C(=O)Nc1cccc([N+](=O)[O-])c1)c1nc2ccc(C(=O)c3ccccc3)cc2nc1O (stereo not given)"
assignedlabel = "inactive"

[[record]]
compound = "COc1ccc(-c2c3ccccc3c(-c3ccc(OCCBr)cc3)c3ccccc23)cc1"
assignedlabel = "inactive"

[[record]]
compound = "O=C(CC1C(=O)Nc2ccccc2[S+]1[O-])Nc1ccc(Cl)cc1 (stereo not given)"
assignedlabel = "inactive"

[[record]]
compound = "COC(=O)/C=c1/c2ccccc2n2c1c1ccccc1[n+]2C"
assignedlabel = "inactive"


----------
# Test system: SNB-75
# assayComment: NCI tumour cell line growth inhibition, 48 h
Active and inactive are the calls of the source. Rule as the data show it: active = GI50 up to about 1.1 µM and inactive = higher.
measure: GI50

[[record]]
compound = "N#Cc1c(-c2ccccc2)c(C#N)c(=O)n(NS(=O)(=O)c2ccccc2)c1O"
tgt = "SNB-75"
valueobserved = "> 100 µM (inactive)"

[[record]]
compound = "O=C1CCCC2=C(N1)C(=O)C=CC2=O"
tgt = "SNB-75"
valueobserved = "43.8 µM (inactive)"

[[record]]
compound = "Cn1c2c(c3ccccc31)CC(=S)N1CCCC(CC2O)C1 (stereo unspecified)"
tgt = "SNB-75"
valueobserved = "> 100 µM (inactive)"

[[record]]
compound = "CC#CC(O)(C(=O)OC1CCCN(C)C1)C1=CC=CCC1 (stereo unspecified)"
tgt = "SNB-75"
valueobserved = "> 100 µM (inactive)"

[[record]]
compound = "O=C1CNS(=O)(=O)N1"
tgt = "SNB-75"
valueobserved = "> 100 µM (inactive)"

[[record]]
compound = "Nc1ccc(C(=O)N/C(=C\\C=C\\c2ccco2)c2nc3c4c(ccc3[nH]2)C(=O)c2ccccc2C4=O)cc1"
tgt = "SNB-75"
valueobserved = "14.2 µM (inactive)"

[[record]]
compound = "Cc1ccc2nc3c(C)cc(=O)cc-3sc2c1"
tgt = "SNB-75"
valueobserved = "32.7 µM (inactive)"

[[record]]
compound = "COc1ccccc1N1C(=O)CS(=O)(=O)C1c1cccc(Oc2ccccc2)c1 (stereo unspecified)"
tgt = "SNB-75"
valueobserved = "20 µM (inactive)"

[[record]]
compound = "COCOc1ccc(C2(O)Oc3cc(OCOC)ccc3C2C)c(O)c1 (stereo unspecified)"
tgt = "SNB-75"
valueobserved = "15.3 µM (inactive)"

[[record]]
compound = "Cc1c2c(OCCCCN3CCN(c4ncccn4)CC3)nn(C)c(=O)c2c(C)n1-c1ccccc1"
tgt = "SNB-75"
valueobserved = "19.5 µM (inactive)"

[[record]]
compound = "CSc1ccc(C(=O)C(=O)c2ccc(SC)s2)s1"
tgt = "SNB-75"
valueobserved = "> 10 µM (inactive)"

